- assay_protocol: Cyclic voltammetry (redox potentials on a GCE)
- Assay type: physicochemical
- cond: pH 6.0; GCE (d = 2 mm)
experimental_endpoint: (E p)c Reduction (mV)

compound="N[C@@H](Cc1ccc(O)c(O)c1)C(=O)O [L-DOPA (1), L-3,4-dihydroxyphenylalanine]" measurement_unit=mV result=101
compound=O=C(O)CCc1cc(O)c(O)cc1Br measurement_unit=mV result=154
compound=NCCc1ccc(O)c(O)c1 measurement_unit=mV result=84
compound=N#Cc1cc(O)c(O)cc1CCC(=O)O measurement_unit=mV result=260

* * *

- target_of_assay: L-DOPA 2,3-dioxygenase from S. hygroscopicus jingganensis (ShjDDO) (Streptomyces hygroscopicus, UniProt H2JL11)
- Sequence (H2JL11 1-162): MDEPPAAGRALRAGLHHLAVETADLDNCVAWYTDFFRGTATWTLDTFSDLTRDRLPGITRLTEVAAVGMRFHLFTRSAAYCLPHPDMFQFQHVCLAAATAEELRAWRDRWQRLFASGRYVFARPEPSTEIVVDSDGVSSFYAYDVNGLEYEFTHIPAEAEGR
- assay_protocol: UV-visible steady-state assay of L-DOPA 2,3-dioxygenase (ShjDDO)
- Assay type: biochemical
- cond: percentage of the value for L-DOPA
experimental_endpoint: kSP, O2 (μM^-1 min^-1) at pH 7.5 relative to L-DOPA x 100 for ShjDDO (%)

compound="NCCc1cc(O)c(O)cc1Br [Compound 6-bromoDA, 6-bromodopamine, reference compound]" result=9
compound="O=C(O)CCc1ccc(O)c(O)c1 [DHHCA (3), 3,4-dihydroxyhydrocinnamic acid]" result=13
compound="N[C@@H](Cc1ccc(O)c(O)c1)C(=O)O [L-DOPA (1), L-3,4-dihydroxyphenylalanine]" result=100

* * *

- assay_protocol: Cyclic voltammetry (redox potentials on a GCE)
- Assay type: physicochemical
- cond: pH 7.4; GCE (d = 2 mm)
# note: exactly 300 mV is not below, so it is no; use yes for (E p)a Oxidation strictly under it

molecule="N#Cc1cc(O)c(O)cc1CCC(=O)O [6-CyanoDHHCA (5)]" group=yes
molecule="O=C(O)CCc1ccc(O)c(O)c1 [DHHCA (3), 3,4-dihydroxyhydrocinnamic acid]" group=no
molecule="N[C@@H](Cc1ccc(O)c(O)c1)C(=O)O [L-DOPA (1), L-3,4-dihydroxyphenylalanine]" group=no
molecule="O=C(O)CCc1cc(O)c(O)cc1Br [6-BromoDHHCA (4)]" group=yes
molecule="O=C(O)CCc1cc(O)c(O)cc1[N+](=O)[O-] [6-NitroDHHCA (6)]" group=yes
molecule="NCCc1ccc(O)c(O)c1 [Dopamine (DA, 2), dopamine]" group=yes

* * *

- assay_protocol: Cyclic voltammetry (redox potentials on a GCE)
- Type: physicochemical
- cond: pH 7.4; GCE (d = 2 mm)
experimental_endpoint: (E p)c Reduction (mV)

entry_smiles=O=C(O)CCc1cc(O)c(O)cc1Br result=59
entry_smiles=N#Cc1cc(O)c(O)cc1CCC(=O)O result=147
entry_smiles=NCCc1ccc(O)c(O)c1 result=54

* * *

- target_of_assay: L-DOPA 2,3-dioxygenase from S. lincolnensis (LmbB1) (Streptomyces lincolnensis, UniProt Q54354)
- Sequence (Q54354 entry or part of it): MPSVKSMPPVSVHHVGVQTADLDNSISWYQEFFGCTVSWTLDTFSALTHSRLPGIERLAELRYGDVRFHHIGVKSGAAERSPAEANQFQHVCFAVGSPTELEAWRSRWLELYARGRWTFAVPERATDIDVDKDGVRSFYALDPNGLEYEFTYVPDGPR
- assay_protocol: UV-visible steady-state assay of L-DOPA 2,3-dioxygenase (LmbB1)
- Type: biochemical
- cond: percentage of the value for L-DOPA
experimental_endpoint: kSP, O2 (μM^-1 min^-1) at pH 7.5 relative to L-DOPA x 100 for LmbB1 (%)

molecule="O=C(O)CCc1ccc(O)c(O)c1 [DHHCA (3), 3,4-dihydroxyhydrocinnamic acid]" result=23
molecule="O=C(O)CCc1cc(O)c(O)cc1Br [6-BromoDHHCA (4)]" result=4
molecule="NCCc1cc(O)c(O)cc1Br [Compound 6-bromoDA, 6-bromodopamine, reference compound]" result=27
molecule="N[C@@H](Cc1ccc(O)c(O)c1)C(=O)O [L-DOPA (1), L-3,4-dihydroxyphenylalanine]" result=100

* * *

- assay_protocol: Cyclic voltammetry (redox potentials on a GCE)
- Type: physicochemical
- cond: pH 6.0; GCE (d = 2 mm)
experimental_endpoint: E1/2 (mV)

compound="O=C(O)CCc1ccc(O)c(O)c1 [DHHCA (3), 3,4-dihydroxyhydrocinnamic acid]" result=198.5
compound=O=C(O)CCc1cc(O)c(O)cc1Br result=210.5
compound="N[C@@H](Cc1ccc(O)c(O)c1)C(=O)O [L-DOPA (1), L-3,4-dihydroxyphenylalanine]" result=231.5
compound=NCCc1ccc(O)c(O)c1 result=219
compound=N#Cc1cc(O)c(O)cc1CCC(=O)O result=309

* * *

- assay_protocol: Determination of pKa values by spectrophotometric titration
- cond: first catecholic deprotonation; determined spectroscopically from pH 3 to 12.5
experimental_endpoint: pK a value

molecule="O=C(O)CCc1ccc(O)c(O)c1 [DHHCA (3), 3,4-dihydroxyhydrocinnamic acid]" result=8.87
molecule="N[C@@H](Cc1ccc(O)c(O)c1)C(=O)O [L-DOPA (1), L-3,4-dihydroxyphenylalanine]" result=8.81
molecule="NCCc1ccc(O)c(O)c1 [Dopamine (DA, 2), dopamine]" result=8.99
molecule="O=C(O)CCc1cc(O)c(O)cc1Br [6-BromoDHHCA (4)]" result=8.36
molecule="N#Cc1cc(O)c(O)cc1CCC(=O)O [6-CyanoDHHCA (5)]" result=7.51
molecule="O=C(O)CCc1cc(O)c(O)cc1[N+](=O)[O-] [6-NitroDHHCA (6)]" result=6.94

* * *

- assay_protocol: Cyclic voltammetry (redox potentials on a GCE)
- Format: physicochemical
- cond: pH 7.4; GCE (d = 2 mm)
experimental_endpoint: E1/2 (mV)

compound="O=C(O)CCc1cc(O)c(O)cc1Br [6-BromoDHHCA (4)]" experimental_endpoint=E1/2 measurement_unit=mV result=127
compound="O=C(O)CCc1ccc(O)c(O)c1 [DHHCA (3), 3,4-dihydroxyhydrocinnamic acid]" experimental_endpoint=E1/2 measurement_unit=mV result=119
compound="N#Cc1cc(O)c(O)cc1CCC(=O)O [6-CyanoDHHCA (5)]" experimental_endpoint=E1/2 measurement_unit=mV result=209.5
compound="NCCc1ccc(O)c(O)c1 [Dopamine (DA, 2), dopamine]" experimental_endpoint=E1/2 measurement_unit=mV result=116

* * *

This listing pairs molecules with measured ΔE p.
- assay_protocol: Cyclic voltammetry (redox potentials on a GCE)
- Type: physicochemical
- cond: pH 7.4; GCE (d = 2 mm)
experimental_endpoint: ΔE p (mV)

molecule=NCCc1ccc(O)c(O)c1 experimental_endpoint="ΔE p" result=124
molecule="O=C(O)CCc1ccc(O)c(O)c1 [DHHCA (3), 3,4-dihydroxyhydrocinnamic acid]" experimental_endpoint="ΔE p" result=428
molecule=O=C(O)CCc1cc(O)c(O)cc1Br experimental_endpoint="ΔE p" result=136
molecule=N#Cc1cc(O)c(O)cc1CCC(=O)O experimental_endpoint="ΔE p" result=125

* * *

- assay_protocol: Determination of pKa values by spectrophotometric titration
- cond: percentage of the value for L-DOPA
Quick list: Catecholic pKa value relative to L-DOPA x 100 per entry.
experimental_endpoint: Catecholic pKa value relative to L-DOPA x 100 (%)

compound="O=C(O)CCc1ccc(O)c(O)c1 [DHHCA (3), 3,4-dihydroxyhydrocinnamic acid]" result=101
compound="N#Cc1cc(O)c(O)cc1CCC(=O)O [6-CyanoDHHCA (5)]" result=85
compound="N[C@@H](Cc1ccc(O)c(O)c1)C(=O)O [L-DOPA (1), L-3,4-dihydroxyphenylalanine]" result=100
compound="O=C(O)CCc1cc(O)c(O)cc1Br [6-BromoDHHCA (4)]" result=95
compound="NCCc1cc(O)c(O)cc1Br [Compound 6-bromoDA, 6-bromodopamine, reference compound]" result=92

* * *

- assay_protocol: Cyclic voltammetry (redox potentials on a GCE)
- Type: physicochemical
- cond: pH 7.4; GCE (d = 2 mm)
experimental_endpoint: Ipa/Ipc

compound=O=C(O)CCc1cc(O)c(O)cc1Br result=1.21
compound=NCCc1ccc(O)c(O)c1 result=1.32
compound=N#Cc1cc(O)c(O)cc1CCC(=O)O result=1.96
compound="O=C(O)CCc1ccc(O)c(O)c1 [DHHCA (3), 3,4-dihydroxyhydrocinnamic acid]" result=1.30

* * *

- assay_protocol: Cyclic voltammetry (redox potentials on a GCE)
- Format: physicochemical
- cond: pH 6.0; GCE (d = 2 mm)
experimental_endpoint: (E p)a Oxidation (mV)

compound=O=C(O)CCc1cc(O)c(O)cc1[N+](=O)[O-] result=444
compound="O=C(O)CCc1ccc(O)c(O)c1 [DHHCA (3), 3,4-dihydroxyhydrocinnamic acid]" result=388
compound=NCCc1ccc(O)c(O)c1 result=354
compound=N#Cc1cc(O)c(O)cc1CCC(=O)O result=358
compound=O=C(O)CCc1cc(O)c(O)cc1Br result=267
compound="N[C@@H](Cc1ccc(O)c(O)c1)C(=O)O [L-DOPA (1), L-3,4-dihydroxyphenylalanine]" result=362

* * *

- assay_protocol: Cyclic voltammetry (redox potentials on a GCE)
- Format: physicochemical
- cond: pH 6.0; GCE (d = 2 mm)
experimental_endpoint: Ipa/Ipc

compound="O=C(O)CCc1ccc(O)c(O)c1 [DHHCA (3), 3,4-dihydroxyhydrocinnamic acid]" experimental_endpoint=Ipa/Ipc result=2.54
compound="N[C@@H](Cc1ccc(O)c(O)c1)C(=O)O [L-DOPA (1), L-3,4-dihydroxyphenylalanine]" experimental_endpoint=Ipa/Ipc result=5.90
compound=NCCc1ccc(O)c(O)c1 experimental_endpoint=Ipa/Ipc result=2.89
compound=N#Cc1cc(O)c(O)cc1CCC(=O)O experimental_endpoint=Ipa/Ipc result=3.92
compound=O=C(O)CCc1cc(O)c(O)cc1Br experimental_endpoint=Ipa/Ipc result=1.43
